target: hERG (Homo sapiens (Human)); assay: Patch clamp assay (hERG tail currents, whole-cell); type: cell-based; details: hERG transfected HEK 293 cells
Sequence (Q12809 whole entry): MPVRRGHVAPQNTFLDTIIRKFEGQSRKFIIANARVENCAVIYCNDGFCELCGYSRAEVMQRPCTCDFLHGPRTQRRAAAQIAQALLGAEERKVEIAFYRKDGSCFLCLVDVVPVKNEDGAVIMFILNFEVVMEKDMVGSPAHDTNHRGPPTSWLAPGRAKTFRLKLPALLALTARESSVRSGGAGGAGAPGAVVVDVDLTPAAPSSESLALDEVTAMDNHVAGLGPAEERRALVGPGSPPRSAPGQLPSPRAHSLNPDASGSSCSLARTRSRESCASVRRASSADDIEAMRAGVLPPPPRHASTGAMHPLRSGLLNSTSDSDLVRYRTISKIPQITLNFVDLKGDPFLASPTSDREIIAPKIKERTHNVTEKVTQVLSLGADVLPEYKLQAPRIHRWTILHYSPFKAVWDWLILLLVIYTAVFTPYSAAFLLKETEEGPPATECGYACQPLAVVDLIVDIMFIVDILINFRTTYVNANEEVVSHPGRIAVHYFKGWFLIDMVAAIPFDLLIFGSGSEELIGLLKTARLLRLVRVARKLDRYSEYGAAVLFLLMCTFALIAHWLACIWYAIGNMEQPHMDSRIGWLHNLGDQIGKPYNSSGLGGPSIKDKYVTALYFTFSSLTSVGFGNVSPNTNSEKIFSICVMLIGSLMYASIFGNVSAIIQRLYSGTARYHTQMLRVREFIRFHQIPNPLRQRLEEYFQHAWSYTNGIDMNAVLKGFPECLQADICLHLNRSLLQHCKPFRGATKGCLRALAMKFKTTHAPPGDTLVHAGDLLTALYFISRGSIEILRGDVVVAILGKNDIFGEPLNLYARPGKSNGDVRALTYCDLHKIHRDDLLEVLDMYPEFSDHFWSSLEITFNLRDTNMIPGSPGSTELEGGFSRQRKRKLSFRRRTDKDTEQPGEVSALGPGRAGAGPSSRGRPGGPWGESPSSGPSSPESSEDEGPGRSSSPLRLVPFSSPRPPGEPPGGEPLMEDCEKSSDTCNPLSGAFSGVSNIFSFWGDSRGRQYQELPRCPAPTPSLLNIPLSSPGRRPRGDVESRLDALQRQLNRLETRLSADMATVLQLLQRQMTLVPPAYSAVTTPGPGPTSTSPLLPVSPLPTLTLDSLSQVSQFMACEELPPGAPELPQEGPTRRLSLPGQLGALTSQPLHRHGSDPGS
Could you please report measured IC50 for the items listed next?

Query: I'm curious: which IC50 was measured for CCNS(=O)(=O)N[C@@H]1CC[C@@H](CN2CCC3(CC2)CN(c2ncnnc2Oc2ccc(F)cc2C(=O)N(CC(F)(F)F)C(C)C)C3)OC1 (single isomer, unassigned) tested on hERG (Homo sapiens (Human))?
Reply: ≥ 50 µM

Query: // map CCNS(=O)(=O)N[C@@H]1CC[C@@H](CN2CCC3(CC2)CN(c2ncncc2Oc2ccc(F)cc2C(=O)N(CC(F)(F)F)C(C)C)C3)OC1 to recorded IC50 (system: hERG (Homo sapiens (Human)))
Reply: ≥ 50 µM

Query: Under hERG (Homo sapiens (Human)): IC50 value of CCS(=O)(=O)N[C@@H]1CC[C@@H](CN2CCC3(CC2)CN(c2ncncc2Oc2ccc(F)cc2C(=O)N(C(C)C)C(C)C)C3)OC1 ?
Reply: ≥ 50 µM

Query: Give recorded IC50 with hERG (Homo sapiens (Human)) for the following compound: CC(C)N(CC(F)F)C(=O)c1cc(F)ccc1Oc1cncnc1N1CC2(CCN(C[C@@H]3CC[C@@H](NS(=O)(=O)N(C)C)CO3)CC2)C1
Reply: < 25 µM

Query: What reported IC50 corresponds to Cc1nc(S(=O)(=O)N[C@@H]2CC[C@@H](CN3CCC4(CC3)CN(c3ncncc3Oc3ccc(F)cc3C(=O)N3[C@H](C)COC[C@H]3C)C4)OC2)cs1 on hERG (Homo sapiens (Human))?
Reply: ≥ 50 µM

Query: Provide the documented IC50 with hERG (Homo sapiens (Human)) as the system for CC(C)N(C(=O)c1cc(F)ccc1Oc1cncnc1N1CC2(CCN(C[C@@H]3CC[C@@H](NS(=O)(=O)C(C)C)CO3)CC2)C1)C(C)C
Reply: 25 to 50 µM

Query: Form: Entry = CCN(C(=O)c1cc(F)ccc1Oc1cncnc1N1CC2(CCN(C[C@@H]3CC[C@@H](NS(=O)(=O)c4cnn(C)c4)CO3)CC2)C1)C(C)C | System = hERG (Homo sapiens (Human)) | IC50 = ____
Reply: ≥ 50 µM

Query: Param readout = IC50; param system = hERG (Homo sapiens (Human)); param query = CCN(C(=O)c1cc(F)ccc1Oc1cncnc1N1CC2(CCN(C[C@@H]3CC[C@@H](NS(=O)(=O)N(C)C)CO3)CC2)C1)C(C)C ; response: value
Reply: ≥ 50 µM

Query: Field: IC50 (hERG (Homo sapiens (Human))). Entry: CCS(=O)(=O)N[C@@H]1CC[C@@H](CN2CCC3(CC2)CN(c2ncncc2Oc2ccc(F)cc2C(=O)N(CC(F)F)C(C)C)C3)OC1
Reply: 25 to 50 µM

Query: Provide value of IC50 for this record tested with hERG (Homo sapiens (Human)): CCN(C(=O)c1cc(F)ccc1Oc1cncnc1N1CC2(CCN(C[C@@H]3CC[C@@H](NS(=O)(=O)C4CC4)CO3)CC2)C1)C(C)C
Reply: ≥ 50 µM

Query: Could you share what IC50 was measured for CC(C)N(C(=O)c1cc(F)ccc1Oc1cncnc1N1CC2(CCN(C[C@@H]3CC[C@@H](NS(C)(=O)=O)CO3)CC2)C1)C(C)C , tested on hERG (Homo sapiens (Human))?
Reply: ≥ 50 µM

Query: Form field - read-out: IC50; system: hERG (Homo sapiens (Human)); submitted item: CCNS(=O)(=O)N[C@@H]1CC[C@@H](CN2CCC3(CC2)CN(c2ncncc2Oc2ccc(F)cc2C(=O)N(CC(F)F)C(C)C)C3)OC1
Reply: ≥ 50 µM

Query: Lab note: need IC50 for CNS(=O)(=O)N[C@@H]1CC[C@@H](CN2CCC3(CC2)CN(c2ncncc2Oc2ccc(F)cc2C(=O)N(CC(F)F)C(C)C)C3)OC1 on hERG (Homo sapiens (Human)), anyone have it?
Reply: ≥ 50 µM

Query: Form field - read-out: IC50; system: hERG (Homo sapiens (Human)); submitted item: CC(C)N(C(=O)c1cc(F)ccc1Oc1cncnc1N1CC2(CCN(C[C@@H]3CC[C@@H](NS(=O)(=O)C4CC4)CO3)CC2)C1)C(C)C
Reply: 25 to 50 µM

Query: Query IC50 on hERG (Homo sapiens (Human)) for CC(C)N(CC(F)F)C(=O)c1cc(F)ccc1Oc1cncnc1N1CC2(CCN(C[C@@H]3CC[C@@H](NS(=O)(=O)c4cnn(C)c4)CO3)CC2)C1
Reply: ≥ 50 µM

Query: Find the measured IC50: item CNS(=O)(=O)N[C@@H]1CC[C@@H](CN2CCC3(CC2)CN(c2ncncc2Oc2ccc(F)cc2C(=O)N(C(C)C)C(C)C)C3)OC1 , target or system hERG (Homo sapiens (Human)).
Reply: ≥ 50 µM

Query: Under hERG (Homo sapiens (Human)): IC50 value of CCN(C(=O)c1cc(F)ccc1Oc1cncnc1N1CC2(CCN(C[C@H]3CC[C@H](NS(=O)(=O)CC)CC3)CC2)C1)C(C)C ?
Reply: < 25 µM

Query: Please tell me: IC50 of CC(C)N(C(=O)c1cc(F)ccc1Oc1cncnc1N1CC2(CCN(C[C@@H]3CC[C@@H](NS(=O)(=O)N(C)C)CO3)CC2)C1)C1CC1 , system hERG (Homo sapiens (Human))?
Reply: ≥ 50 µM

Query: Provide the documented IC50 with hERG (Homo sapiens (Human)) as the system for CC(C)N(C(=O)c1cc(F)ccc1Oc1cncnc1N1CC2(CCN(C[C@@H]3CC[C@@H](NS(=O)(=O)c4cnn(C)c4)CO3)CC2)C1)C(C)C
Reply: ≥ 50 µM

Query: Observed IC50 on hERG (Homo sapiens (Human)) for CCN(C(=O)c1cc(F)ccc1Oc1cncnc1N1CC2(CCN(C[C@@H]3CC[C@@H](NS(=O)(=O)N4CCC4)CO3)CC2)C1)C(C)C , please.
Reply: 25 to 50 µM

Query: Record lookup: for hERG (Homo sapiens (Human)), what IC50 belongs to CC(C)N(C(=O)c1cc(F)ccc1Oc1cncnc1N1CC2(CCN(C[C@@H]3CC[C@@H](NS(=O)(=O)N(C)C)CO3)CC2)C1)[C@@H]1CCOC1 ?
Reply: ≥ 50 µM

Query: I'm curious: which IC50 was measured for CC(C)N(CC(F)F)C(=O)c1cc(F)ccc1Oc1cncnc1N1CC2(CCN(C[C@@H]3CC[C@@H](NS(N)(=O)=O)CO3)CC2)C1 tested on hERG (Homo sapiens (Human))?
Reply: ≥ 50 µM
